System: HCI-008 (organoid from a HER2-enriched breast cancer xenograft)
Assay: CTG-3D luminescence at 96 h relative to day-0 seeding control (ratio to day 0); higher = more growth / less cytotoxicity; PDxO 3D drug screen, 96 h, CTG-3D normalised to day-0 seeding control.
Conditions: 0.1 µM; days in culture: 244
PROPERTY: CTG-3D luminescence at 96 h

Inquiry: Under HCI-008: report CTG-3D luminescence at 96 h of CC(=O)O[C@H]1C(=O)[C@@]2(C)[C@H]([C@H](OC(=O)c3ccccc3)[C@]3(O)C[C@H](OC(=O)[C@H](O)[C@@H](NC(=O)c4ccccc4)c4ccccc4)C(C)=C1C3(C)C)[C@]1(OC(C)=O)CO[C@@H]1C[C@@H]2O .
Reply text: 0.925

Inquiry: Recall the reported CTG-3D luminescence at 96 h of C/C=C1\NC(=O)[C@H]2CSSCC/C=C/[C@H](CC(=O)N[C@H](C(C)C)C(=O)N2)OC(=O)[C@H](C(C)C)NC1=O on HCI-008 and write it down.
Reply text: 0.0448
